Molecular target: UniProt:P04150
Sequence (P04150 1-777): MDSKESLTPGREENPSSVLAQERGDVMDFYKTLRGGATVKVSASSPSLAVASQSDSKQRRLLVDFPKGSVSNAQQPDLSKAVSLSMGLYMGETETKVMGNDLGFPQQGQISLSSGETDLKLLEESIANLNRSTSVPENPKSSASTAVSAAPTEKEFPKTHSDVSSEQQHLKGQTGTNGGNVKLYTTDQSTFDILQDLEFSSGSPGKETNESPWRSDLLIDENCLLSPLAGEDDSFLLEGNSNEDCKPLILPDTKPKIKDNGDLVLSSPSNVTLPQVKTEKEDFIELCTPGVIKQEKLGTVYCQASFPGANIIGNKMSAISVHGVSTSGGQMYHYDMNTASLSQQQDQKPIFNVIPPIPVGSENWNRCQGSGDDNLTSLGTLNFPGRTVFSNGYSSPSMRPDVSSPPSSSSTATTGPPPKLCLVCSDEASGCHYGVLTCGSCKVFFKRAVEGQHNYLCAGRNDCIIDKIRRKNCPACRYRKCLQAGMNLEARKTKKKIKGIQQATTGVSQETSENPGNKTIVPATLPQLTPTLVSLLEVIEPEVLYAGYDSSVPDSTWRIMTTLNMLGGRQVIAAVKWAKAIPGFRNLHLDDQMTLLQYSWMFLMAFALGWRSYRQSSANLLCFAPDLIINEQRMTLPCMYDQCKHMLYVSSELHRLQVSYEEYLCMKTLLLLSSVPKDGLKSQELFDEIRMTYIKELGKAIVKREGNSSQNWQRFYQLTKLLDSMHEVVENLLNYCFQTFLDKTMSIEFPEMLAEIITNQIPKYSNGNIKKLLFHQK
ENDPOINT: Ki

Answered examples (3):
molecule=Cc1ccc2c(c1)CCc1ccccc1/C2=C\c1cccc(NS(C)(=O)=O)c1 readout_value="< 500 nM"
molecule=Fc1ccc2c(c1)CCc1ncccc1/C2=C\c1ccc(C(F)F)cc1 readout_value="< 1000 nM"
molecule=CS(=O)(=O)Nc1cc(F)cc(/C=C2\c3ccc(F)cc3CCc3nc(CF)ccc32)c1 readout_value="< 500 nM"

## Task // map Nc1cccc(C(=C2c3ccccc3CCc3ccccc32)c2ccc(-c3ccccc3)cc2)c1 to recorded Ki (system: UniProt:P04150)
## Result < 10000 nM

## Task // map CS(=O)(=O)Nc1cccc(C[C@H]2c3ccccc3CCc3cc(F)ccc32)c1 to recorded Ki (system: UniProt:P04150)
## Result < 500 nM

## Task // map Cc1cccc2c1CCc1ccccc1C2=Cc1ccc(NS(C)(=O)=O)cc1 to recorded Ki (system: UniProt:P04150)
## Result < 1000 nM

## Task // map CS(=O)(=O)Nc1cccc(C=C2c3ccccc3CCc3c(N)cccc32)c1 to recorded Ki (system: UniProt:P04150)
## Result < 500 nM

## Task // map CC/C(=C1\c2ccc(OC)cc2COc2cc(F)ccc21)c1cccc(NS(C)(=O)=O)c1 to recorded Ki (system: UniProt:P04150)
## Result < 500 nM
